Provide the recorded Relative activity, agonist mode for the entries that follow.
Biological target: human FXR-LBD (GST-FXR-LBD) (Homo sapiens, UniProt Q96RI1)
Construct: the human FXR-LBD (residues 234–472) was expressed as a GST fusion protein GST-FXR-LBD; made in house; host or cells: E. coli BL21(DE3)
Sequence (Q96RI1 234-472 isoform Q96RI1-2): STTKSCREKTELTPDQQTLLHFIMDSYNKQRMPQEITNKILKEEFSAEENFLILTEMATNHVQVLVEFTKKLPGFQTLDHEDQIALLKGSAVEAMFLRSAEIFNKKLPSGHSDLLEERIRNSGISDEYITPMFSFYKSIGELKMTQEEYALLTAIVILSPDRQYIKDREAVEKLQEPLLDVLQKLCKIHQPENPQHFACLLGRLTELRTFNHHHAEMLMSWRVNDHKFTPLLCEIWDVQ
Experiment: HTRF coactivator recruitment assay, agonist mode
Format: biochemical
Unit % implied. Number only.

Q: Give recorded Relative activity, agonist mode with human FXR-LBD (GST-FXR-LBD) (Homo sapiens, UniProt Q96RI1) for the following compound: N#Cc1nn(-c2c(Cl)cc(C(F)(F)F)cc2Cl)c(N)c1S(=O)(=O)C(F)(F)F [FIP-S, fipronil sulfone]
Ans: 2.06

Q: Observed Relative activity, agonist mode on human FXR-LBD (GST-FXR-LBD) (Homo sapiens, UniProt Q96RI1) for CC1COC(=O)c2cc3c(cc21)C(C)(C)C(C)C3(C)C (stereo not drawn) [GAX, galaxolidone] , please.
Ans: 0.32

Q: Please tell me: Relative activity, agonist mode of O=C(Nc1ccc(Cl)cc1)Nc1ccc(Cl)c(Cl)c1 [TCC, triclocarban] , system human FXR-LBD (GST-FXR-LBD) (Homo sapiens, UniProt Q96RI1)?
Ans: 0.44

Data provenance: paper PMC12010937
